ASSAY_SYSTEM: human NaV1.6 (Homo sapiens (Human))
PROTOCOL_TEXT: Sodium Influx Assay (Flux), NaV1.6
pIC50: −log10 of the molar value.

{"COMPOUND": "C[C@H]1C[C@@H](Oc2ccc(S(=O)(=O)Nc3nccs3)cc2Cl)CCN1Cc1ccccc1 (relative stereo)", "ASSAY_SYSTEM": "human NaV1.6 (Homo sapiens (Human))", "pIC50": 5.22}
{"COMPOUND": "C[C@H]1CN(Cc2ccccc2)C[C@@H]1Nc1ccc(S(=O)(=O)Nc2nccs2)cc1Cl (relative stereo)", "ASSAY_SYSTEM": "human NaV1.6 (Homo sapiens (Human))", "pIC50": 6.78}
{"COMPOUND": "Cc1cccc(CN2CC[C@H](Oc3ccc(S(=O)(=O)Nc4nccs4)cc3Cl)[C@H](C)C2)c1 (relative stereo)", "ASSAY_SYSTEM": "human NaV1.6 (Homo sapiens (Human))", "pIC50": 5.76}
{"COMPOUND": "Cc1cccc(CN2CC[C@@H](Oc3ccc(S(=O)(=O)Nc4nccs4)cc3Cl)[C@H](C)C2)c1 (relative stereo)", "ASSAY_SYSTEM": "human NaV1.6 (Homo sapiens (Human))", "pIC50": 6.06}
{"COMPOUND": "C[C@@H]1C[C@@H](Oc2ccc(S(=O)(=O)Nc3nccs3)cc2Cl)CCN1Cc1ccccc1 (relative stereo)", "ASSAY_SYSTEM": "human NaV1.6 (Homo sapiens (Human))", "pIC50": 5.73}
{"COMPOUND": "C[C@@H](c1ccccc1)N1CC[C@H](N(C)c2cc(F)c(S(=O)(=O)Nc3cccc(F)n3)cc2Cl)C1 [Example 43, 2,2,2-trifluoroacetate]", "ASSAY_SYSTEM": "human NaV1.6 (Homo sapiens (Human))", "pIC50": 5.72}
{"COMPOUND": "C[C@@H]1CN(Cc2ccccc2)C[C@@H]1Nc1ccc(S(=O)(=O)Nc2nccs2)cc1Cl (relative stereo)", "ASSAY_SYSTEM": "human NaV1.6 (Homo sapiens (Human))", "pIC50": 6.18}

* * *

ASSAY_SYSTEM: human NaV1.6 (Homo sapiens (Human), UniProt Q9UQD0)
Sequence (Q9UQD0 whole entry): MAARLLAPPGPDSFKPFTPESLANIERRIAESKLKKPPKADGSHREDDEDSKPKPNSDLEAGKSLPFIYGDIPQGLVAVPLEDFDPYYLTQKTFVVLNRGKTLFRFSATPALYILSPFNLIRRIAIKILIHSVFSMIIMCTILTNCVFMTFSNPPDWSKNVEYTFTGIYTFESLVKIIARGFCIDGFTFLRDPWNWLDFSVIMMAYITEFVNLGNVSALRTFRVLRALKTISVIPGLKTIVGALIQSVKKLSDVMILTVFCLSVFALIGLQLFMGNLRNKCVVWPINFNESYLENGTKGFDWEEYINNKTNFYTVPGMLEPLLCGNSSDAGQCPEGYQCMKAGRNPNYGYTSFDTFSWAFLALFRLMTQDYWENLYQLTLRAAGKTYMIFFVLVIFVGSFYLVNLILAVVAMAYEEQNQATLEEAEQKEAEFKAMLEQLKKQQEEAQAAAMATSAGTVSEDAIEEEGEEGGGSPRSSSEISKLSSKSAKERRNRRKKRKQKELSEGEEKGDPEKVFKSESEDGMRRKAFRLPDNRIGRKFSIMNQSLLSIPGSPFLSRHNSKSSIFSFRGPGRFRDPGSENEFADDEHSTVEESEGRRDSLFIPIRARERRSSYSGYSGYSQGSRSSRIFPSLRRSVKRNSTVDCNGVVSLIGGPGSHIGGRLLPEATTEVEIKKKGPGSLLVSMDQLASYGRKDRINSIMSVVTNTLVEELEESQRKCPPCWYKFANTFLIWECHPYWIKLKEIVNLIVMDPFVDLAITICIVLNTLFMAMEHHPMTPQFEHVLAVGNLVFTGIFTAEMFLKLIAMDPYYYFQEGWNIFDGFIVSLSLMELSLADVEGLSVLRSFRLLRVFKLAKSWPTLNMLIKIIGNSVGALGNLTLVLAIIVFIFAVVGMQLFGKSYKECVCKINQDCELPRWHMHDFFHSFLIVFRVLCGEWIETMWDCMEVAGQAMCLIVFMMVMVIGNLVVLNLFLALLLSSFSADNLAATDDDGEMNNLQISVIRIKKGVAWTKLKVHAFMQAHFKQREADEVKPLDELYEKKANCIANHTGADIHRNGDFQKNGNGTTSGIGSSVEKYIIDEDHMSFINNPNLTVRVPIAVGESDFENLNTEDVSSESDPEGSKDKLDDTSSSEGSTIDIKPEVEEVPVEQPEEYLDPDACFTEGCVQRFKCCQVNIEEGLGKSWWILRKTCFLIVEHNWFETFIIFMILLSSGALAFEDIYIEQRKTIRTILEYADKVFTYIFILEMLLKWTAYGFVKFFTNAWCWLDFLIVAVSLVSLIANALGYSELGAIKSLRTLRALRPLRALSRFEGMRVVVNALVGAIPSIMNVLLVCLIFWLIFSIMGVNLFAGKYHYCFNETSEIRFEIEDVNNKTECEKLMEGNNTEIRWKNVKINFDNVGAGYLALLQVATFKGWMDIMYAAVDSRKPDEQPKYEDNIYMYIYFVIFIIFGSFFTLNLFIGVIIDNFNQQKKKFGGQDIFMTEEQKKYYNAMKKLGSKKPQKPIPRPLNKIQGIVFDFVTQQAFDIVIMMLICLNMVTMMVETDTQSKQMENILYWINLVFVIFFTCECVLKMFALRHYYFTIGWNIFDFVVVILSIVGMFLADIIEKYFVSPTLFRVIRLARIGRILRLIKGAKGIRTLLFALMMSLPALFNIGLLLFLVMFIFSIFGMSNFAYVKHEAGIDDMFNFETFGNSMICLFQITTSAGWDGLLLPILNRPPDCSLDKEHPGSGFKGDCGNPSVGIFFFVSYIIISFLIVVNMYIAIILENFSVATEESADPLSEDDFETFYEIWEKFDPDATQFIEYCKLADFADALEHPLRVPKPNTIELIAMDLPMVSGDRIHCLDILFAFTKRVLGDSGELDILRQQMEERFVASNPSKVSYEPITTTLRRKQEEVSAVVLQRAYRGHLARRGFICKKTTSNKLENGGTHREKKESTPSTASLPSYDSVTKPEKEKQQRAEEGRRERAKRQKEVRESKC
Sequence (Q07699 19-218 partner): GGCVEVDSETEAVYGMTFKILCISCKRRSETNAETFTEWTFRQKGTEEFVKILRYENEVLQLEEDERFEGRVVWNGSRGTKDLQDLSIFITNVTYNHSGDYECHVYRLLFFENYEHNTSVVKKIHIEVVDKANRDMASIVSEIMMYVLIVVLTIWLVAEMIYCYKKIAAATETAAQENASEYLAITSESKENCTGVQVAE
PROTOCOL_TEXT: Sodium Influx Assay (Flux), NaV1.6
CONDITION: read-out: Flux NaV1.6 IC50; Trex HEK293 cells, ANG2 dye; arithmetic mean
VALUE_KIND: IC50 (µM)

{"COMPOUND": "O=S(=O)(Nc1cscn1)c1ccc(O[C@@H]2C[C@H]3CC[C@@H](C2)N3Cc2cccc(C(F)F)c2)c(Cl)c1", "UNIT_SYMBOL": "µM", "DATA_VALUE": 3.31}
{"COMPOUND": "C[C@@H]1[C@H](N(C)c2cc(F)c(S(=O)(=O)Nc3cscn3)cc2Cl)CCN1Cc1ccccc1 (racemic)", "UNIT_SYMBOL": "µM", "DATA_VALUE": 6.86}
